Value source: paper PMC5647227

Quick record of log10(Ki) values for UniProt:P33533.
Sequence (P33533 whole entry): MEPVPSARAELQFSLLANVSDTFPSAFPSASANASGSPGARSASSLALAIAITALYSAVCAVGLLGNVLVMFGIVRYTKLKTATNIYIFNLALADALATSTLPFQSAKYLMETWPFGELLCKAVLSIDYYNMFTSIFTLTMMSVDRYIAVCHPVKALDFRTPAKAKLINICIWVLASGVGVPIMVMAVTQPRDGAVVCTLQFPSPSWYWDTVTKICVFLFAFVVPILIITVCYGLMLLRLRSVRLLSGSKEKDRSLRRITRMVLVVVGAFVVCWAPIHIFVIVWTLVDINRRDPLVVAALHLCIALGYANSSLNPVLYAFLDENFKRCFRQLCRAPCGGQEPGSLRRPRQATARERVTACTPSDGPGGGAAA
The figures below represent log10 of Ki, where Ki is stated in nM.

Compound	Target or system	Assay result
Cc1cc(O)cc(C)c1C[C@H](N)C(=O)N[C@H](CCCNC(=N)N)C(=O)N[C@H]1Cc2ccccc2CN(CC(=O)N(C)Cc2ccc3ccccc3c2)C1=O [Compound 13]	UniProt:P33533	2.36
Cc1cc(O)cc(C)c1C[C@H](N)C(=O)N[C@H](CCCNC(=N)N)C(=O)N[C@H]1Cc2ccccc2CN(CCC(=O)N2Cc3ccccc3C2)C1=O [Compound 9, H-Dmt-D-Arg-Aba-β-Ala-isoindoline]	UniProt:P33533	1.20
Cc1cc(O)cc(C)c1C[C@H](N)C(=O)N[C@H](CCCNC(=N)N)C(=O)N[C@H]1Cc2ccccc2CN(CC(=O)N2Cc3ccccc3C2)C1=O [Compound 10, H-Dmt-D-Arg-Aba-Gly-isoindoline]	UniProt:P33533	1.91
Cc1cc(O)cc(C)c1C[C@H](N)C(=O)N[C@H](CCCNC(=N)N)C(=O)N[C@H]1Cc2ccccc2CN(CCC(=O)N(C)Cc2ccc3ccccc3c2)C1=O [Compound 12]	UniProt:P33533	1.64
Cc1cc(O)cc(C)c1C[C@H](N)C(=O)N[C@H](CCCNC(=N)N)C(=O)N[C@H]1Cc2ccccc2CN(CCC(=O)N(Cc2ccccc2)C2CC2)C1=O [Compound 7, H-Dmt-D-Arg-Aba-β-Ala-NcPr-Bn]	UniProt:P33533	1.82
COc1ccccc1CN(C)C(=O)CN1Cc2ccccc2C[C@H](NC(=O)[C@@H](CCCNC(=N)N)NC(=O)[C@@H](N)Cc2c(C)cc(O)cc2C)C1=O [Compound 11, H-Dmt-D-Arg-Aba-Gly-NMe-2′-OMe-Bn]	UniProt:P33533	1.41

Using the record for Cc1cc(O)cc(C)c1C[C@H](N)C(=O)N[C@H](CCCNC(=N)N)C(=O)N[C@H]1Cc2ccccc2CN(CCC(=O)N(Cc2cc(C(F)(F)F)cc(C(F)(F)F)c2)C2CC2)C1=O [Compound 6] , report its log10(Ki). 2.28

Using the record for Cc1cc(O)cc(C)c1C[C@H](N)C(=O)N[C@H](CCCNC(=N)N)C(=O)N[C@H]1Cc2ccccc2CN(CC(=O)N(Cc2ccccc2)C2CC2)C1=O [Compound 8, H-Dmt-D-Arg-Aba-Gly-NcPr-Bn] , report its log10(Ki). 1.83
